Test system: EKVX NSCLC
experiment_summary: NCI tumour cell line growth inhibition, 48 h
recorded_metric: TGI

# compound, TGI
records = [
    ("O=C(Nc1cc(Cl)ccc1Cl)c1cc2cccc(Br)c2oc1=O", "> 100 µM"),
    ("CN(C)c1ccc(C(=N)c2ccc(N(C)C)cc2)cc1", "> 100 µM"),
    ("O=C(/C=C/c1ccc2c(c1)OCO2)NCCc1ccco1", "> 100 µM"),
    ("C[C@]12C(=O)C=CCC1=CC[C@@H]1[C@@H]2[C@H]2CC3(O)C(=O)O[C@@]4(C)[C@H]5C[C@@]6(C)[C@@H]7[C@@]2(O)[C@]1(OC[C@H]6C(=O)O5)O[C@]734 (some centres not stated)", "> 100 µM"),
    ("Nc1ncnc2c1sc(=S)n2-c1ccccc1", "> 100 µM"),
]

// map Oc1[nH]c(N=C2N=c3ccccc3=N2)c2ccccc12 to recorded TGI (system: EKVX NSCLC)
52.2 µM

Also need COc1cc(O)c(C(=O)CC(C)=O)c(OC)c1 , thanks.
> 100 µM

Also need O=C(O)CNc1ccc(Cl)c(Cl)c1 , thanks.
64.8 µM

Also need Nc1ncnc2c1ncn2CCCC(c1ccccc1)P(=O)(O)O (configuration not stated) , thanks.
> 100 µM

Also need O=C(/C=C/c1ccc(OCc2ccccc2)cc1)NCc1ccc(C(=O)NCc2ccccc2)cc1 , thanks.
> 100 µM

Also need O=c1nc(NC(c2ccccc2)(c2ccccc2)c2ccccc2)ccn1CCCl , thanks.
61 µM

Also need C[N+](C)(C)CCOC(=O)/C=C/c1cnc[nH]1 , thanks.
> 500 µM
